Data origin: ChEMBL document CHEMBL5634129

System: Human coronavirus OC43
Test: Antiviral activity against HCoV-OC43 infected in human NCI-H460 cells treated for 72 hrs by CPE inhibition assay
Format: functional, organism-based
Details: Betacoronavirus 1, NCI-H460, 72 h
Property: EC50; scope: individual compounds
Numbers only; they are read as nM.

Challenge: Which EC50 value belongs to "Fc1cc(Nc2ncnc3ccc(Cl)cc23)cc(C(F)(F)F)c1" ?
Response given: 2470

Challenge: Follow-up entry: "CCOc1ccc2nc(NC3CC3)nc(Nc3cc(C(F)(F)F)cc(C(F)(F)F)c3)c2c1"
Response given: 310

Challenge: Follow-up entry: "COc1ccc2ncnc(Nc3ccc(F)c(C(F)(F)F)c3)c2c1"
Response given: 1430

Challenge: Follow-up entry: "FC(F)(F)c1cc(Nc2ncnc3cnc(Cl)cc23)cc(C(F)(F)F)c1"
Response given: 150

Challenge: Follow-up entry: "COc1cc2c(Nc3cc(C(F)(F)F)cc(C(F)(F)F)c3)ncnc2cn1"
Response given: 280

Challenge: Follow-up entry: "COc1ccc2ncnc(Nc3cc(F)cc(F)c3)c2c1"
Response given: 23900

Challenge: Follow-up entry: "COc1ccc2ncnc(Nc3cccc(C(F)(F)F)c3)c2c1"
Response given: 4280

Challenge: Follow-up entry: "COc1ccc2ncnc(Nc3ccc(F)c(Cl)c3)c2c1"
Response given: 3560
